- TEST TARGET: Replicative DNA helicase DnaB (Mycobacterium tuberculosis, UniProt P9WMR3)
- Sequence (P9WMR3 whole entry): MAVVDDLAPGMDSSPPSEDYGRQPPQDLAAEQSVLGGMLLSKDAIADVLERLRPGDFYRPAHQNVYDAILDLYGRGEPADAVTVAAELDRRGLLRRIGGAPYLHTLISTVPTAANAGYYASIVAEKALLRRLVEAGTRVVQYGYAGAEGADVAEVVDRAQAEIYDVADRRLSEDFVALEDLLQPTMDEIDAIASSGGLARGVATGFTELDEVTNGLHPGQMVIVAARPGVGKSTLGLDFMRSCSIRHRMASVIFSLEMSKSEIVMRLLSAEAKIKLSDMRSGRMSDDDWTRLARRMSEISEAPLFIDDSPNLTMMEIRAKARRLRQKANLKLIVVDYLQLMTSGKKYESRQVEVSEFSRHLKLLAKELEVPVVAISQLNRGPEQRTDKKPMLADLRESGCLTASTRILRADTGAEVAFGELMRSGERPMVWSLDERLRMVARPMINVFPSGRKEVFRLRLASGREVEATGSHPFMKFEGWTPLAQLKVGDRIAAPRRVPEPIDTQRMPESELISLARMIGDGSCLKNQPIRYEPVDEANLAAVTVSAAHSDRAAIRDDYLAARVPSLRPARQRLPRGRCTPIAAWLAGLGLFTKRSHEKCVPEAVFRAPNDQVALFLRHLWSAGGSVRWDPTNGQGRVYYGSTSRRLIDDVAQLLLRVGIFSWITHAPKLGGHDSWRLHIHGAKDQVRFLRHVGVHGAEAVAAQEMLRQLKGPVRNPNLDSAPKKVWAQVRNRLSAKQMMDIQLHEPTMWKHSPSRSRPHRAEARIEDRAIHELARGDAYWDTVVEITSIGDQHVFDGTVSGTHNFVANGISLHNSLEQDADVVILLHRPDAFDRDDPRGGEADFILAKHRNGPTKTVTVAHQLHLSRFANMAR
- ASSAY: DnaB intein splicing inhibitors, dose response, biochemical, cell-free fluorescence (AID 449749)
- Type: functional
Active and inactive are the calls of the source. Rule as the data show it: actives have a measured AC50 and inactives only a lower limit.
Answer each item with its documented AC50.

Prompt: // Input: CC1=NNC(=O)C1Cc1c(Cl)cccc1Cl (centres undefined) . Output its AC50 only.
Response: 1.39 µM (active)

Prompt: // Input: CN1C(=O)/C(=C/c2ccc(-c3ccccc3[N+](=O)[O-])o2)S/C1=N\c1ccc(Cl)c(C(=O)O)c1 . Output its AC50 only.
Response: 10.6 µM (active)

Prompt: // Input: N#C/C(=C\c1ccc(O)c([N+](=O)[O-])c1)c1nc2ccccc2s1 . Output its AC50 only.
Response: 7.01 µM (active)

Prompt: // Input: O=C(Oc1ccc(Br)cc1C(=S)N1CCOCC1)c1cccc([N+](=O)[O-])c1 . Output its AC50 only.
Response: 18.2 µM (active)
